test: Mouse GVHD model: pharmacokinetics
Assay type: in vivo, mice
measurement context: C57Bl/6, blood, oral; 100 mg/kg, on Day 55, mouse GVHD model; read-out: concentration at 24 hours post-administration
metric: concentration at 24 h (ng/mL)
Express your answer in ng/mL, writing the number without its unit.

Ask: # input compound: CO[C@@H](C)c1c(NC(=O)Nc2cnc(-n3nccn3)c(Cl)c2)cnc2cc(Cl)nn12 [REO-751] ; wanted: its concentration at 24 h
Reply: 385

----------
Test system: rat collagen induced arthritis (CIA) model
test: Rat collagen-induced arthritis model: clinical score
measurement context: 3 mg/kg dose, in comparison to the vehicle treatment
metric: reduction in the clinical score (%)
Express your answer in %, writing the number without its unit.

Ask: Form field - read-out: reduction in the clinical score; system: rat collagen induced arthritis (CIA) model; submitted item: CO[C@@H](C)c1c(Nc2ccc([C@H](N(C)C(=O)C3CCS(=O)(=O)CC3)C(F)(F)F)cc2)cnc2cc(Cl)nn12
Reply: 24

Ask: Form field - read-out: reduction in the clinical score; system: rat collagen induced arthritis (CIA) model; submitted item: CO[C@@H](C)c1c(Nc2ccc([C@H](N(C)C(=O)C3CCN(C(C)=O)CC3)C(F)(F)F)cc2)cnc2cc(Cl)nn12
Reply: 23

Ask: Form field - read-out: reduction in the clinical score; system: rat collagen induced arthritis (CIA) model; submitted item: CN(C(=O)C1CCS(=O)(=O)CC1)[C@@H](c1ccc(Nc2cnc3cccnc3c2C2CC2)cc1)C(F)(F)F
Reply: 65

Ask: Form field - read-out: reduction in the clinical score; system: rat collagen induced arthritis (CIA) model; submitted item: O=C(Nc1ccnc(C(F)(F)F)c1)Nc1cnn2ccc(Cl)c2c1C1CC1
Reply: 35
